Source of measurements: patent EP1247803A2

Target: FLK-1 receptor (Mus musculus, UniProt P35918)
Construct: expressed in transfected cells; host or cells: NIH3T3 C7#3
Sequence (P35918 20-1345): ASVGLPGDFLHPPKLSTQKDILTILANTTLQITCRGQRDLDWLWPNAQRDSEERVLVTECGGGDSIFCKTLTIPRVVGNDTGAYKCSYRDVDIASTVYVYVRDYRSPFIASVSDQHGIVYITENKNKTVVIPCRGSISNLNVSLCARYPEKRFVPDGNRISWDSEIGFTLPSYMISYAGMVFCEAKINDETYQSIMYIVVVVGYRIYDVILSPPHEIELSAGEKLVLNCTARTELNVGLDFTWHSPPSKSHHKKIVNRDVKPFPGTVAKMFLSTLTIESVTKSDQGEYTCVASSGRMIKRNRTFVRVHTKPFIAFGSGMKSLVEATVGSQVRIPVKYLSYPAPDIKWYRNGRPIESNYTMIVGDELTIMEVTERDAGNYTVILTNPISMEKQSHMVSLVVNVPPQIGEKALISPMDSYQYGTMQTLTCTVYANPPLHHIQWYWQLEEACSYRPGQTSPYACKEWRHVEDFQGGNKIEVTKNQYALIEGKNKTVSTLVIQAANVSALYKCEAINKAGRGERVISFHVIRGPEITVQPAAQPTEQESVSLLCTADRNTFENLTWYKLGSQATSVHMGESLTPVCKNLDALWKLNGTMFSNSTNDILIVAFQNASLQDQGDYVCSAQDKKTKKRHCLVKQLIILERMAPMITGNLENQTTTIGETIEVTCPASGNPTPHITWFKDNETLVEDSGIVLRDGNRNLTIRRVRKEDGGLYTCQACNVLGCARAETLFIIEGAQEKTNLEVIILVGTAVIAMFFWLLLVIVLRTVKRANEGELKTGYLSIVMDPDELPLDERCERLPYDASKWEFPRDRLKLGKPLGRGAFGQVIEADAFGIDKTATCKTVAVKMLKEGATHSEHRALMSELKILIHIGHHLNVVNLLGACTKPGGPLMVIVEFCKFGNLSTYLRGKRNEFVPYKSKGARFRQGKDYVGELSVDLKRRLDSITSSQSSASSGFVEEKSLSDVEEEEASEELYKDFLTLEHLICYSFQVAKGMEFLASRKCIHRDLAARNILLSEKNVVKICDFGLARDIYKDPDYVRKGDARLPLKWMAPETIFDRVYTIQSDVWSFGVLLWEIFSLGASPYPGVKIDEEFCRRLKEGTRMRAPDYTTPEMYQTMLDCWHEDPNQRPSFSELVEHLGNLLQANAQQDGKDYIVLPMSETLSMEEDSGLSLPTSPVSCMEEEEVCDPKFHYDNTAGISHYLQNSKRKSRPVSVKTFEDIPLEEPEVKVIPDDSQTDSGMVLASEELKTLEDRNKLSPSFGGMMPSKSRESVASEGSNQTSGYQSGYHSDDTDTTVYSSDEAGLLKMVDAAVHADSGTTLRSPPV
Test: FLK-1 ELISA (kinase activity of the FLK-1 receptor in FLK-1/NIH3T3 cells, VEGF stimulated)
Type: cell-based
experimental-endpoint: Fik Kinase %Inhibition (%)
One number for each entry, in %.

The cases that follow already have their Fik Kinase %Inhibition on record.
O=C(O)COc1ccccc1C=C1C(=O)Nc2ccc(CCCl)cc21; 10.4
CNS(=O)(=O)c1ccc2c(c1)C(=Cc1ccc(OC)cc1)C(=O)N2; 10.5
CNS(=O)(=O)c1ccc2c(c1)C(=Cc1ccccc1O)C(=O)N2; 4.8

Answer for every listed entry: what is its Fik Kinase %Inhibition? The entries follow.
1. Cc1c(O)ccc(C=C2C(=O)Nc3ccc(I)cc32)c1O
2. O=C1Nc2ccc(I)cc2C1=Cc1ccc(N2CCOCC2)cc1
3. COc1ccc(C=C2C(=O)Nc3ccc(Br)c(C)c32)c(O)c1
4. CNS(=O)(=O)c1ccc2c(c1)C(=Cc1ccc3ccccc3c1O)C(=O)N2
5. O=C1Nc2ccc(I)cc2C1=Cc1c[nH]cn1
6. CCOC(=O)c1[nH]c(C=C2C(=O)Nc3ccc(I)cc32)c(C(=O)OC)c1C
7. COc1ccc(C=C2C(=O)Nc3ccc(CCCl)cc32)c(O)c1

-- reply
-14.7
-24.1
-22.3
6.4
-42.3
11.1
-1.8

====

Molecular target: FLK-1 receptor (Mus musculus)
Construct: expressed in transfected cells; host or cells: NIH3T3 C7#3
Assay: FLK-1 ELISA (kinase activity of the FLK-1 receptor in FLK-1/NIH3T3 cells, VEGF stimulated)
Type: cell-based
Rule for this label: MET means Fik Kinase %Inhibition is less than 10%; NOT MET means Fik Kinase %Inhibition is at least 10%.

CNS(=O)(=O)c1ccc2c(c1)C(=Cc1cc3c(cc1Cl)OCO3)C(=O)N2 [10727/D06]; NOT MET
CC(C)(C)c1cc(C=C2C(=O)Nc3ccc(S(=O)(=O)Nc4ccc(C(F)(F)F)cc4)cc32)cc([N+](=O)[O-])c1O [10722/E02]; NOT MET
O=C1Nc2c(Br)cc(Br)cc2C1=Cc1ccc([N+](=O)[O-])c(O)c1 [10724/A04]; MET
CC(C)(C)c1cc(C=C2C(=O)Nc3ccc(CCCl)cc32)cc(Br)c1O [10721/G10]; NOT MET
CCOC(=O)c1[nH]c(C=C2C(=O)Nc3c(Br)cc(Br)cc32)c(C(=O)OC)c1C [10726/A03]; MET

-- ask Say whether its Fik Kinase %Inhibition is strictly beneath 10%. Entry: CNS(=O)(=O)c1ccc2c(c1)C(=Cc1ccc(OC)cc1OC)C(=O)N2 [10719/D04]
-- reply NOT MET

-- ask Would you kindly verify if Fik Kinase %Inhibition of Cc1c(Br)ccc2c1C(=Cc1ccc(N(C)C)cc1)C(=O)N2 [10719/C08] is strictly less than 10%?
-- reply NOT MET

-- ask For this compound, is Fik Kinase %Inhibition lower than 10%? O=C1Nc2ccc(F)cc2C1=C1C(=O)Nc2ccc(I)cc21 [10726/B08]
-- reply NOT MET

====

Biological target: EGFR (Homo sapiens, UniProt P00533)
Construct: Add 7 ug A431 cell lysate per well (EGFR source); endogenous in cells; host or cells: A431
Sequence (P00533 25-1210): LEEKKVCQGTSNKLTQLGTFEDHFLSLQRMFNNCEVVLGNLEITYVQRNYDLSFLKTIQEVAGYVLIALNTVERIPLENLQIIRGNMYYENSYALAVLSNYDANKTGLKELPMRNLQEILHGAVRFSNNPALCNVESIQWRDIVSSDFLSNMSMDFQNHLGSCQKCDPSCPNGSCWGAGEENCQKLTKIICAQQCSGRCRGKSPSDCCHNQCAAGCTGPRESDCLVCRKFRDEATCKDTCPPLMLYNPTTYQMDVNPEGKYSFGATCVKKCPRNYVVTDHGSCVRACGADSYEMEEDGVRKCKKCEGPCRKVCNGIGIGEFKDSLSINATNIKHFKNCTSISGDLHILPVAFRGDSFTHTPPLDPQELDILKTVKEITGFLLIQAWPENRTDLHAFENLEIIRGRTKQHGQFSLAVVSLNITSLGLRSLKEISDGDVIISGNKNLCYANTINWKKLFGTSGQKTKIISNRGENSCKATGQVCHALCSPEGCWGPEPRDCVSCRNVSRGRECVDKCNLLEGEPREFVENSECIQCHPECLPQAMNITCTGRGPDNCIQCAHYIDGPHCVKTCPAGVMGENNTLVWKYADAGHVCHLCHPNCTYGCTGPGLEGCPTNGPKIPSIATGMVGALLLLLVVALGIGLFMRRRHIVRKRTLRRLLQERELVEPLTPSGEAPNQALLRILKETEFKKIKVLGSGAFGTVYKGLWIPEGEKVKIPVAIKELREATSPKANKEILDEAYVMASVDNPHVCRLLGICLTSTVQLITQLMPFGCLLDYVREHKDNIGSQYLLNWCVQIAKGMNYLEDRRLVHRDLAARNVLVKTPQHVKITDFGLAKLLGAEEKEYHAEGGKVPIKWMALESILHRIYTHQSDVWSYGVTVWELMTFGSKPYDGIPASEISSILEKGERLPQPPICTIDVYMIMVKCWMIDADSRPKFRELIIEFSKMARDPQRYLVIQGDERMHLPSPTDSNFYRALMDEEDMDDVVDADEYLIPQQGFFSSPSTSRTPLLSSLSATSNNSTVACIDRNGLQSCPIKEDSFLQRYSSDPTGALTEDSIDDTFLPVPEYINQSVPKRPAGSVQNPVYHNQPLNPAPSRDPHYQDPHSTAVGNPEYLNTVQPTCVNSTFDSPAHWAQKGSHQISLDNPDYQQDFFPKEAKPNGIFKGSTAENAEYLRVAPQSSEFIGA
Assay: EGFR ELISA assay (in vitro kinase activity, EGFR captured from A431 cell lysate)
Assay type: biochemical
Set-up: concentration or dose not given beside the values
For each entry below, report its Biochem EGFR %Inhibition value.
Answers are plain numbers, in %.

Worked examples, 5 compounds total:
CNS(=O)(=O)c1ccc2c(c1)C(=Cc1cc(O)ccc1O)C(=O)N2; 86.2
Cc1cc(O)cc(O)c1C=C1C(=O)Nc2ccc(I)cc21; -12.6
CNS(=O)(=O)c1ccc2c(c1)C(=Cc1c[nH]c3ccc(OC)cc13)C(=O)N2; 12.6
COc1cc(OC)c(OC)cc1C=C1C(=O)Nc2ccc(CCCl)cc21; -6.9
COc1ccc(O)c(C=C2C(=O)Nc3ccc(CCCl)cc32)c1; 20.4

Hey, quick one: what's Biochem EGFR %Inhibition for each of these?
1. Cc1c(Br)ccc2c1C(=Cc1nc3ccccc3n1C)C(=O)N2
2. O=C1Nc2ccc(I)cc2C1=Cc1cccc([N+](=O)[O-])c1
3. O=C1Nc2ccc(S(=O)(=O)N3CCOCC3)cc2C1=Cc1coc2ccc([N+](=O)[O-])cc2c1=O

-- reply
[68.3, -1.2, 37.7]

-- ask Assign Biochem EGFR %Inhibition to the following record: "Cc1cc(C=C2C(=O)Nc3ccc(Br)c(C)c32)[nH]n1"
-- reply -21.9

====

Target: UniProt:P09619
Sequence (P09619 33-1106, species assumed): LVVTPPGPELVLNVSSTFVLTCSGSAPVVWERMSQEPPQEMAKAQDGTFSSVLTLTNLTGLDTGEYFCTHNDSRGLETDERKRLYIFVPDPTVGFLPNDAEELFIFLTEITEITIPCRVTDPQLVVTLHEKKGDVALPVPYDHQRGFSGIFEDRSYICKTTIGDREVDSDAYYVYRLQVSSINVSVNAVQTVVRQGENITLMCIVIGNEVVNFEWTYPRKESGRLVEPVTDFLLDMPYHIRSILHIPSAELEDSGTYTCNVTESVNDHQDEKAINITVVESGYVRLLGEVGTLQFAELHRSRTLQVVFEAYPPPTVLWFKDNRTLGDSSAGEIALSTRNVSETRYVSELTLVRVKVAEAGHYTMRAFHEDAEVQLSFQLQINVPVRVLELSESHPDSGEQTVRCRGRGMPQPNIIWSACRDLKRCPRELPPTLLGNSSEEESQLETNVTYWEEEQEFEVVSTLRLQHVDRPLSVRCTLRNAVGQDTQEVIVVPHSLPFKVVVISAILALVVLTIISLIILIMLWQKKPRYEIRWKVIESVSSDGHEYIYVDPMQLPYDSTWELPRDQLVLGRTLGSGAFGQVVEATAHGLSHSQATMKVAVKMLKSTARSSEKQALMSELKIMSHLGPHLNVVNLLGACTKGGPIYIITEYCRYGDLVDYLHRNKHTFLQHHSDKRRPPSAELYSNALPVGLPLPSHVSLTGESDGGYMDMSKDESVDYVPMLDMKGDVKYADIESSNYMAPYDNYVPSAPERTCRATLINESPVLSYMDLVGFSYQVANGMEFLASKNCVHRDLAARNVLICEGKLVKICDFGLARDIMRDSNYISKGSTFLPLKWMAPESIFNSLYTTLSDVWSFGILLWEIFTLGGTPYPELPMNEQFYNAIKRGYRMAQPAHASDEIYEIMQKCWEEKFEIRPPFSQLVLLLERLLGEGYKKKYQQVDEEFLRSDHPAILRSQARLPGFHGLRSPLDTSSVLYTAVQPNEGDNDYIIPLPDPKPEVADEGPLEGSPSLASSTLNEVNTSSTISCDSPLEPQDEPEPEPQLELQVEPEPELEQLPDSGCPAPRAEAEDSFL
Assay: PDGF-R ELISA
Assay type: cell-based
experimental-endpoint: PDGF Kinase %Inhibition
Returns: string containing the numeric result and its unit.

Here is how some molecules turned out for PDGF Kinase %Inhibition.
O=C1Nc2ccc(F)cc2C1=C1C(=O)Nc2c(Br)cc(Br)cc21; 10.7%
CNS(=O)(=O)c1ccc2c(c1)C(=Cc1ccc(O)cc1O)C(=O)N2; 31.1%
O=C1Nc2ccc(I)cc2C1=Cc1ccc(O)cc1O; 56.1%

Hey, can you go through the list below and give me PDGF Kinase %Inhibition for every item?
1. CNS(=O)(=O)c1ccc2c(c1)C(=Cc1c(Br)cnn1-c1ccc(Cl)cc1)C(=O)N2
2. O=C1Nc2ccc(S(=O)(=O)N3CCOCC3)cc2C1=Cc1cc(Br)ccc1O
3. Cc1cc2occ(C=C3C(=O)Nc4ccc(Br)c(C)c43)c(=O)c2cc1C
4. CC(=O)n1cc(C=C2C(=O)Nc3ccc(Br)c(C)c32)c2ccccc21
5. COc1cc(C)cc(O)c1C=C1C(=O)Nc2c(Br)cc(Br)cc21
6. CCOc1cccc(C=C2C(=O)Nc3ccc(S(=O)(=O)N4CCOCC4)cc32)c1O

-- reply
1: 43.8%; 2: -0.3%; 3: 11.3%; 4: 8.5%; 5: 40.9%; 6: 10.4%

====

Task for the reader: assign each of the following molecules its reported Biochem EGFR %Inhibition.
Target: EGFR (Homo sapiens)
Construct: Add 7 ug A431 cell lysate per well (EGFR source); endogenous in cells; host or cells: A431
Experiment: EGFR ELISA assay (in vitro kinase activity, EGFR captured from A431 cell lysate)
Format: biochemical
Set-up: concentration or dose not given beside the values

These recorded examples may help you get a feel for the data.
CNS(=O)(=O)c1ccc2c(c1)C(=Cc1coc3ccc(C(C)C)cc3c1=O)C(=O)N2; 53.9%
CC(C)(C)c1cc(C=C2C(=O)Nc3c(Br)cc(Br)cc32)cc(C(C)(C)C)c1OCc1ccccc1; 55.2%
O=C1Nc2ccc(CCCl)cc2C1=Cc1ccc(O)c(O)c1; 89.5%
COc1ccc(Br)c(C=C2C(=O)Nc3ccc(S(=O)(=O)Nc4ccc(C(F)(F)F)cc4)cc32)c1O; -10.3%
C=C(C)C1CC=C(C=C2C(=O)Nc3ccc(I)cc32)CC1 (stereo not drawn); 31.3%
CC(C)(C)c1ccc(C=C2C(=O)Nc3ccc(I)cc32)cc1; 60.7%
COc1cc(C=C2C(=O)Nc3ccc(Br)c(C)c32)cc2c1OCO2; 21.8%
O=C1Nc2ccc(CCCl)cc2C1=Cc1ccc(C(=O)O)cc1; -9.0%
O=C1Nc2ccc(CCCl)cc2C1=CC(c1cccs1)C(F)(F)F (stereo not drawn); -0.7%
Cc1c(Br)ccc2c1C(=Cc1c(F)cc(F)cc1F)C(=O)N2; 23.5%

// each molecule listed below needs its Biochem EGFR %Inhibition
1. COc1cc(OC)c(C=C2C(=O)Nc3ccc(Br)c(C)c32)c(OC)c1
2. CNS(=O)(=O)c1ccc2c(c1)C(=Cc1ccc(N(C)C)cc1)C(=O)N2
3. O=C1Nc2c(Br)cc(Br)cc2C1=Cc1ccc(O)cc1
4. Cc1c(Br)ccc2c1C(=Cc1ccc(O)c(C(C)(C)C)c1)C(=O)N2
5. CNS(=O)(=O)c1ccc2c(c1)C(=Cc1cc3c([nH]1)CCCC3)C(=O)N2
6. O=C1Nc2c(Br)cc(Br)cc2C1=Cc1cccn1-c1ccc(Cl)cc1

-- reply
["-14.3%", "-12.2%", "15.5%", "39.8%", "47.0%", "1.6%"]

Please state, for each entry, its recorded Biochem EGFR %Inhibition.
1. CC(C)(C)c1cc(C=C2C(=O)Nc3ccc(S(=O)(=O)N4CCOCC4)cc32)ccc1O
2. CNS(=O)(=O)c1ccc2c(c1)C(=Cc1coc3c(Br)cc(Br)cc3c1=O)C(=O)N2

-- reply
7.0%
45.1%

====

Would you mind telling me the reported Fik Kinase %Inhibition of each entry?
Molecular target: FLK-1 receptor (Mus musculus)
Construct: expressed in transfected cells; host or cells: NIH3T3 C7#3
Assay: FLK-1 ELISA (kinase activity of the FLK-1 receptor in FLK-1/NIH3T3 cells, VEGF stimulated)
Assay type: cell-based
The answer should read as a number with its unit following.

Cc1cc(C=C2C(=O)Nc3c(Br)cc(Br)cc32)cc(C)c1O [10722/A07]; 9.4%

Batch lookup, Fik Kinase %Inhibition per entry.
1. CCN(CC)c1ccc(C=C2C(=O)Nc3ccc(S(=O)(=O)NC)cc32)c(O)c1 [10734/D05]
2. O=C1Nc2ccc(CCCl)cc2C1=Cc1cccc(Oc2ccccc2)c1 [10729/G06]
3. COc1ccc(OC)c(C=C2C(=O)Nc3ccc(Br)c(C)c32)c1 [10728/C02]
4. CNS(=O)(=O)c1ccc2c(c1)C(=Cc1c(O)cc(C)cc1OC)C(=O)N2 [10725/D06]
5. CNS(=O)(=O)c1ccc2c(c1)C(=Cc1cc(C)c(OCc3ccccc3)c(C)c1)C(=O)N2 [10733/D07]
6. CNS(=O)(=O)c1ccc2c(c1)C(=Cc1ccc(C#N)cc1)C(=O)N2 [10727/D09]
7. CNS(=O)(=O)c1ccc2c(c1)C(=Cc1cccnc1)C(=O)N2 [10729/D08]
8. O=C1Nc2ccc(CCCl)cc2C1=Cc1ccc(O)c(O)c1 [10719/G03]

-- reply
["2.4%", "10.9%", "-32.1%", "-0.5%", "-1.4%", "8.2%", "-26.2%", "-25.8%"]
